Please respond with reported IC50 for every item in the list.
Molecular target: Inosine-5'-monophosphate dehydrogenase 2 (Homo sapiens)
Assay: Inhibition of human recombinant type II Inosine Monophosphate Dehydrogenase. at pH 8.0

Reference set (2 entries):
COc1c(C/C=C(\C)CCC(=O)O)c(O)c2c(c1C(N)=O)COC2=O: > 100 µM
COc1c(C#N)c2c(c(O)c1C/C=C(\C)CCC(=O)O)C(=O)OC2: > 100 µM

// below: IC50 requested for another compound
Ask: Query the reported IC50 for Inosine-5'-monophosphate dehydrogenase 2 (Homo sapiens); item: COc1c(C)c2c(c(O)c1C/C=C(\C)CCC(=O)O)C(=O)N(C)C2
Reply: > 100 µM
